test system: LOX IMVI melanoma; test: NCI-60 one-dose screen, 48 h; conditions: 10 µM unless noted
The panel holds about 83,000 compounds, 20% with a hit somewhere; the sample as a whole holds those more often. Calls of active or inactive are those of the source. How the source made its calls: active means growth percent below 10; inactive means the rest.
Outcome codes: true (1) = active, false (0) = inactive

Molecule	Assigned Category
Cc1cc2c(cc1C)NC1=C(N2)OC(c2c3ccccc3cc3ccccc23)C1=O (stereo not drawn)	true (1)
O=C1/C(=C\c2cn(C(=O)c3ccc(Cl)cc3)c3ccccc23)c2ccccc2N1c1c(Cl)cccc1Cl	false (0)
COc1ccc(/C=N\NC(=O)CN2CCN(c3cc4c(cc3F)c(=O)c(C(=O)N/N=C/c3ccc(OC)cc3)cn4C3CC3)CC2)cc1	false (0)
CN1CCCCC1CCN1c2ccccc2Sc2ccc(Cl)cc21 (stereo not drawn)	false (0)
c1ccc(-c2nc(N3CCOCC3)c3c4c(sc3n2)CCCCC4)nc1	false (0)
Cn1c(=O)c2c(ncn2CC[N+](C)(C)C)n(C)c1=O	false (0)
C[C@@]1(N2C(=O)OC[C@@H]2c2ccccc2)C(=O)N([C@H](CC(=O)N2CCC(N3CCCCC3)CC2)C(=O)NCc2cccc(C(F)(F)F)c2)[C@@H]1/C=C/c1ccccc1	true (1)
CC(C)(C)n1cc(-c2ccnc(NCCCNS(=O)(=O)c3cccc4ccccc34)c2)c(-c2cccc(O)c2)n1	true (1)
